Origin of the recorded values: patent US9643964B2

- target_of_assay: Recombinant Human NF-kappaB-Inducing Kinase (NIK/MAP3K14) (Homo sapiens, UniProt Q99558)
- Sequence (Q99558 whole entry): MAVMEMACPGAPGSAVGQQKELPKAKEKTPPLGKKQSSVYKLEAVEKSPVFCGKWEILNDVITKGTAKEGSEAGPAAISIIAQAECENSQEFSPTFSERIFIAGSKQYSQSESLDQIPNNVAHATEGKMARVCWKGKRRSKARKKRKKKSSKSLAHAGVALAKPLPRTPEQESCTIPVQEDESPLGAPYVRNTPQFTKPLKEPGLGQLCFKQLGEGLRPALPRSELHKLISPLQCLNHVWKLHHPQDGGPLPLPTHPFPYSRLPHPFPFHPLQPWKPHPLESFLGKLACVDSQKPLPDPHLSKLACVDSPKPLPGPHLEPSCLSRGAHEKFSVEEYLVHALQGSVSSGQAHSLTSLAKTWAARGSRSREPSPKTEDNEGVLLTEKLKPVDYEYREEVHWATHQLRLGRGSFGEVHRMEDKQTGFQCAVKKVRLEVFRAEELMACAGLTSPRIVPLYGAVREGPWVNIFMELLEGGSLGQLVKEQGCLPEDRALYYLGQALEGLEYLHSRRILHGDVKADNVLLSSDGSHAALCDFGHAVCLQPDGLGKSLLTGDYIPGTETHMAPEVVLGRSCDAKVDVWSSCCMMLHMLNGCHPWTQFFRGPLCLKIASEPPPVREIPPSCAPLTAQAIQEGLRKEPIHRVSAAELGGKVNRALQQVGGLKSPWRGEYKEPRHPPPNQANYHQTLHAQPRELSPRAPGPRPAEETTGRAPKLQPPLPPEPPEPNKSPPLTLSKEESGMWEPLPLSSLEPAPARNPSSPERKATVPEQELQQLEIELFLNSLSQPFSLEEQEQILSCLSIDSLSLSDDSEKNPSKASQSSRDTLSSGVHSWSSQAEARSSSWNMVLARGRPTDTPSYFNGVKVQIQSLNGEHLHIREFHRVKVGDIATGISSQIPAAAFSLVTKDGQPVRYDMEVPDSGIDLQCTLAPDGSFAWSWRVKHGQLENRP
- assay: Biological Assay A2: inhibition of auto-phosphorylation of recombinant human NIK/MAP3K14 (AlphaScreen)
- Assay type: biochemical
- applied_conditions: auto-phosphorylation; averaged over all measurements on all batches; read-out: αscreen IC50
Kindly supply the reported IC50 values for the records listed here.
Answers are plain numbers, in nM.

molecule	meas_value
CC(C)(O)Cn1cc(-c2ccnc(N)n2)c2cc(C#CC(C)(O)c3ccccc3)ncc21 (stereo not shown) [Compound 36]	86
COCCCn1cc(-c2nc(N)ncc2F)c2cc(C#CC(C)(O)C3CC3)ncc21 (single isomer, unassigned) [Compound 120]	17
CC(O)C#Cc1cc2c(-c3ccnc(N)n3)cn(C(C)C)c2cn1 (stereo not shown) [Compound 10]	29

# input for lookup
# input Fill: IC50 (Recombinant Human NF-kappaB-Inducing Kinase (NIK/MAP3K14) (Homo sapiens, UniProt Q99558)) for this molecule [2H]C([2H])([2H])C(O)(C#Cc1cc2c(-c3nc(N)ncc3F)cn(C3COC3)c2cn1)C1([2H])C([2H])([2H])C1([2H])[2H] (stereo not shown) [Compound 110]
# output 17

---

Provide the reported pEC50 of each item.
- Tested on: L-363 cells
- assay: Biological Assay C: antiproliferative activity on L-363 cells (CellTiter-Glo)
- Format: cell-based, human
- applied_conditions: Homo sapiens, L-363, 72 h, 72 hr treatment; averaged values
One number for each entry, as −log10 of the molar value.

// worked examples, pEC50 included
>>> df
                                   molecule  reported_metric  meas_value
0  CCCCC(=O)NCCCn1cc(-c2ccnc(N)n2)c2cc(C#CC(C)(C)O)ncc21 [Compound 147]            pEC50        6.28
1  CCN1CCC(n2cc(-c3ccnc(N)n3)c3cc(C#CC(C)(C)O)ncc32)CC1 [Compound 79]            pEC50        7.21
2  CC(C)(O)C#Cc1cc2c(-c3nc(N)ncc3Cl)cn(CC(C)(C)O)c2cn1 [Compound 24]            pEC50        7.02
3  CC1(Cn2cc(-c3nc(N)ncc3F)c3cc(C#CC(C)(O)C4CC4)ncc32)COC1 (centres unmarked) [Compound 129]            pEC50        6.82
4  CC(C)(O)C#Cc1cc2c(-c3nc(N)ncc3C#N)cn(CC3CCOCC3)c2cn1 [Compound 75]            pEC50        6.17

For each of the molecules below, note its pEC50.
1. COCCCn1cc(-c2nc(N)ncc2F)c2cc(C#CC(C)(O)C3CC3)nc(C(F)F)c21 (centres unmarked) [Compound 96]
2. CC(C)(O)C#Cc1cc2c(-c3ccnc(N)n3)c[nH]c2cn1 [Compound 1]
3. CNc1ncc(F)c(-c2cn(CCCOC)c3cnc(C#CC4(O)CCCC4)cc23)n1 [Compound 89]
4. CC(C)(O)C#Cc1cc2c(-c3ccnc(N)n3)cn(C3COC3)c2cn1 [Compound 65]
5. CNc1nccc(-c2c[nH]c3cnc(C#CC(C)(C)O)cc23)n1 [Compound 4]

# output
1: 5.18; 2: 6.74; 3: 5.38; 4: 6.40; 5: 6.40

# input Report measured pEC50 on L-363 cells; entry: CC(O)C#Cc1cc2c(-c3ccnc(N)n3)cn(C(C)C)c2cn1 (centres unmarked) [Compound 10]
# output 7.34

---

- Tested on: L-363 cells
- assay: Biological Assay C: antiproliferative activity on L-363 cells (CellTiter-Glo)
- Assay type: cell-based, human
- applied_conditions: Homo sapiens, L-363, 72 h, 72 hr treatment; averaged values
Field: log10(EC50). Provide a value for each of the compounds that follow.
For clarity, the numbers are log10 values of EC50 expressed in nM.

Field: example entries. Status: answers known.
>>> print(df.to_string())
                                   compound  meas_value
0  CC(O)(C#Cc1cc2c(-c3nc(N)ncc3F)cn(C3CCN(CCC(F)(F)F)CC3)c2cn1)C1CC1 (stereo not drawn) [Compound 167]        2.59
1  CC(O)(C#Cc1cc2c(-c3ccnc(N)n3)cn(C3CCN(C4CC4)CC3)c2cn1)C1CC1 (stereo not drawn) [Compound 164]        2.43
2  CC(C)n1cc(-c2nc(N)ncc2Cl)c2cc(C#CC3(O)CCCC3)ncc21 [Compound 19]        2.63
3  COCCCn1cc(-c2nc(N)ncc2F)c2cc(C#CC(C)(C)O)ncc21 [Compound 76]        2.04
4  CC(C)(O)Cn1cc(-c2ccnc(N)n2)c2cc(C#CCO)ncc21 [Compound 62]        2.94
5  CC(C)(O)C#Cc1cc2c(-c3nc(N)ncc3Cl)cn(CCO)c2cn1 [Compound 8]        2.40
6  CNc1ncc(Cl)c(-c2cn(CC(C)(C)O)c3cnc(C#CC(C)(C)O)cc23)n1 [Compound 58]        2.70
7  CC(O)(C#Cc1cc2c(-c3nc(N)ncc3F)cn(CCCN3CCOCC3)c2cn1)C1CC1 (stereo not drawn) [Compound 105]        2.15

Your task in this section: give log10(EC50) for each listed record.
1. Nc1nccc(-c2c[nH]c3cnc(C#CC4(O)CC4)cc23)n1 [Compound 9]
2. CN1CC(n2cc(-c3nc(N)ncc3C(F)(F)F)c3cc(C#CC(C)(O)C4CC4)ncc32)C1 (stereo not drawn) [Compound 99]
3. CC(C)n1cc(-c2nc(N)ncc2Cl)c2cc(C#CC(C)(O)c3nccs3)ncc21 (stereo not drawn) [Compound 17]
4. CC(C)(O)C#Cc1cc2c(-c3ccnc(N)n3)cn(CCS(C)(=O)=O)c2cn1 [Compound 67]
5. COCCN1CCC(n2cc(-c3nc(N)ncc3F)c3cc(C#CC(C)(O)C4CC4)ncc32)CC1 (stereo not drawn) [Compound 108]
6. Cn1cc(-c2ccnc(N)n2)c2cc(C#CC(C)(C)O)ncc21 [Compound 5]
7. CC(O)(C#Cc1cc2c(-c3nc(N)ncc3F)cn(CC3CCCO3)c2cn1)C1CC1 (stereo not drawn) [Compound 130]

# output
2.08
3.04
2.91
3.38
2.45
1.97
2.28

Hi there! I need log10(EC50) for each item below, if you can.
1. COC(C)(C)Cn1cc(-c2nc(N)ncc2F)c2cc(C#CC(C)(O)C3CC3)ncc21 (stereo not drawn) [Compound 101]
2. CN1CCC(n2cc(-c3ccnc(N)n3)c3cc(C#CC(C)(C)O)ncc32)CC1 [Compound 77]

# output
2.20
2.51

---

For each record, write down the corresponding pIC50.
- target_of_assay: Recombinant Human NF-kappaB-Inducing Kinase (NIK/MAP3K14) (Homo sapiens, UniProt Q99558)
- assay: Biological Assay A2: inhibition of auto-phosphorylation of recombinant human NIK/MAP3K14 (AlphaScreen)
- Assay type: biochemical
- applied_conditions: auto-phosphorylation; averaged over all measurements on all batches; read-out: αscreen IC50
Give bare numbers, as −log10 of the molar value.

Batch: pIC50 for all items listed.
1. CC(C)(O)Cn1cc(-c2ccnc(N)n2)c2cc(C#CC3(O)CCOC3)ncc21 (centres unmarked) [Compound 29]
2. COCCn1cc(-c2nc(N)ncc2C#N)c2cc(C#CC(C)(C)O)ncc21 [Compound 41]

# output
1. 6.96
2. 8.05

Please state pIC50 for every molecule in the list that follows.
1. CNc1nccc(-c2c[nH]c3cnc(C#CC(C)(C)O)cc23)n1 [Compound 4]
2. CC(C)N1CC(n2cc(-c3ccnc(N)n3)c3cc(C#CC(C)(C)O)ncc32)C1 [Compound 80]
3. Cc1cnc(N)nc1-c1cn(CC2CCOCC2)c2cnc(C#CC(C)(C)O)cc12 [Compound 82]
4. CC(O)(C#Cc1cc2c(-c3nc(N)ncc3F)c[nH]c2cn1)C1CC1 (centres unmarked) [Compound 132]
5. COCCOc1cnc(N)nc1-c1cn(C(C)C)c2cnc(C#CC(C)(O)C3CC3)cc12 (centres unmarked) [Compound 168]

# output
1: 7.68; 2: 7.12; 3: 7.46; 4: 8.19; 5: 7.44

// input: 2 molecules below; output: pIC50 for each
1. CNc1ncc(Cl)c(-c2cn(CC(C)(C)O)c3cnc(C#CC(C)(C)O)cc23)n1 [Compound 58]
2. COCCCn1cc(-c2nc(N)ncc2F)c2cc(C#CC3(O)CCCC3)ncc21 [Compound 87]

# output
6.15
8.05

---

- System: L-363 cells
- assay: Biological Assay C: antiproliferative activity on L-363 cells (CellTiter-Glo)
- Type: cell-based, human
- applied_conditions: Homo sapiens, L-363, 72 h, 72 hr treatment; averaged values
Criterion: EC50 strictly under 0.4 µM. Met: YES. Not met: NO.

Please review the following examples before continuing.
In [3]: df
Out[3]:
                            compound_string  target_of_assay  label
0  CC(C)(O)C#Cc1cc2c(-c3ccnc(N)n3)cn(CCN3CC(=O)NC3=O)c2cn1      L-363 cells     NO
1  CNc1nccc(-c2cn(CC(C)(C)O)c3cnc(C#CC(C)(C)O)cc23)n1      L-363 cells     NO

# input Say whether its EC50 is strictly beneath 0.4 µM. Entry: COCCCn1cc(-c2ccnc(N)n2)c2cc(C#CC(C)(C)O)nc(C)c21
# output YES

# input Input CC(C)N1CC(n2cc(-c3ccnc(N)n3)c3cc(C#CC(C)(C)O)ncc32)C1 ; condition: EC50 strictly below 0.4 µM. Does it hold?
# output YES

# input For CCC(O)(C#Cc1cc2c(-c3ccnc(N)n3)cn(CCOC)c2cn1)CC , is the recorded EC50 below the cut-off of 0.4 µM?
# output NO

# input Hello, is EC50 of the following compound strictly smaller than 0.4 µM? CC(C)(O)C#Cc1cc2c(-c3ccnc(N)n3)cn(CCO)c2cn1
# output NO

# input Quick check: EC50 of CC(C)(O)Cn1cc(-c2ccnc(N)n2)c2cc(C#CC3(O)CCCCC3)ncc21 under 0.4 µM?
# output NO
